Assay: in vitro
Details: human
measure_name: CC50 at 72 h

In plain terms, Cc1cn([C@H]2C[C@H](N)[C@@H](CSc3ccccc3)O2)c(=O)[nH]c1=O [R3r] has a documented CC50 at 72 h of > 200 µM

----------
Test system: SARS-CoV-2
Assay: microbe, parasite or virus in culture
Type: cell-based
Details: Severe acute respiratory syndrome coronavirus 2, Calu-3, 24 h, read-out: EC50 24 h, Calu-3, MOI 0.01, 24 hpi
measure_name: EC50 (µM)
Give the number; µM is assumed, so skip it.

Examples with their reported EC50 follow.
{"molecule": "Cc1cn([C@H]2C[C@H](N)[C@@H](C[Se]c3ccc(Cl)cc3)O2)c(=O)[nH]c1=O [R3d]", "unit_symbol": "µM", "EC50": 8.29}
{"molecule": "COc1ccc([Te]C[C@H]2O[C@@H](n3cc(C)c(=O)[nH]c3=O)C[C@@H]2N)cc1 [R3o]", "unit_symbol": "µM", "EC50": 6.18}
{"molecule": "COc1ccc([Se]C[C@H]2O[C@@H](n3cc(C)c(=O)[nH]c3=O)C[C@@H]2N)cc1 [R3c]", "unit_symbol": "µM", "EC50": 5.17}
{"molecule": "Cc1cn([C@H]2C[C@H](N)[C@@H](C[Te]c3ccc(Cl)cc3)O2)c(=O)[nH]c1=O [R3p]", "unit_symbol": "µM", "EC50": 4.33}
{"molecule": "Cc1ccc([Se]C[C@H]2O[C@@H](n3cc(C)c(=O)[nH]c3=O)C[C@@H]2N)cc1 [R3b]", "unit_symbol": "µM", "EC50": 3.82}

Query molecule follows.
The value of EC50 measured for the molecule Cc1cn([C@H]2C[C@H](N)[C@@H](C[Se]c3ccccc3)O2)c(=O)[nH]c1=O [R3a] turned out to be 6.37

----------
Assay: in vitro
Settings: African green monkey
measure_name: CC50

Reference set (2 entries):
{"structure_string": "Cc1cn([C@H]2C[C@H](N)[C@@H](C[Se]c3cccc4ccccc34)O2)c(=O)[nH]c1=O", "value_observed": "> 200 µM"}
{"structure_string": "Cc1cn([C@H]2C[C@H](N)[C@@H](C[Se]c3ccccc3)O2)c(=O)[nH]c1=O", "value_observed": "> 200 µM"}

The compound listed as Cc1cn([C@H]2C[C@H](N)[C@@H](C[Te]c3ccc(Cl)cc3)O2)c(=O)[nH]c1=O shows CC50 equal to 49.7 µM

What the record says about Cc1ccc([Te]C[C@H]2O[C@@H](n3cc(C)c(=O)[nH]c3=O)C[C@@H]2N)cc1 : CC50 is 60.1 µM

Recorded CC50 (compound COc1ccc([Se]C[C@H]2O[C@@H](n3cc(C)c(=O)[nH]c3=O)C[C@@H]2N)cc1 ): > 200 µM

Sure, the documented CC50 for Cc1ccc([Se]C[C@H]2O[C@@H](n3cc(C)c(=O)[nH]c3=O)C[C@@H]2N)cc1 is > 200 µM

Reported CC50 ( Cc1cn([C@H]2C[C@H](N)[C@@H](C[Se]c3ccc(Cl)cc3)O2)c(=O)[nH]c1=O ) = 98.8 µM

Looking up Cc1cn([C@H]2C[C@H](N)[C@@H](C[Te]c3cccc4ccccc34)O2)c(=O)[nH]c1=O , I see its CC50 listed as 33.6 µM

// Cc1cn([C@H]2C[C@H](N)[C@@H](C[Te]c3ccccc3)O2)c(=O)[nH]c1=O : CC50 value = 52.1 µM

For record COc1ccc([Te]C[C@H]2O[C@@H](n3cc(C)c(=O)[nH]c3=O)C[C@@H]2N)cc1 the listed CC50 is 39.9 µM
